Reported IC50 values for a set of compounds
molecular target: 3-hydroxy-3-methylglutaryl-coenzyme A reductase (Homo sapiens, UniProt P04035); assay: Inhibition of HMG-CoA reductase by spectrophotometry; details: read-out: IC50
Non-standard residues stand in square brackets, D forms with d. Residues, ends and D or L forms follow the SMILES beside them. Phe(4-F) = N[C@@H](Cc1ccc(F)cc1)C(=O)O
Outcome Measure: IC50 (µM)

1. C[C@@H](O)[C@H](NC(=O)[C@@H]1CCCN1C(=O)[C@H](Cc1ccc(F)cc1)NC(=O)CN)C(=O)NCC(=O)NCC(=O)O (H-G[Phe(4-F)]PTGG-OH) | 4.82
2. NCC(=O)N[C@@H](Cc1ccc(F)cc1)C(=O)N1CCC[C@H]1C(=O)N[C@@H](CC(=O)O)C(=O)NCC(=O)NCC(=O)O (H-G[Phe(4-F)]PDGG-OH) | 6.95
3. CC(C)[C@H](NC(=O)[C@@H](N)Cc1ccc(O)cc1)C(=O)N[C@@H](C)C(=O)N[C@@H](CCC(=O)O)C(=O)O (H-YVAE-OH) | 41.2

----------
Molecular target: 3-hydroxy-3-methylglutaryl-coenzyme A reductase (Homo sapiens)
Sequence (P04035 whole entry): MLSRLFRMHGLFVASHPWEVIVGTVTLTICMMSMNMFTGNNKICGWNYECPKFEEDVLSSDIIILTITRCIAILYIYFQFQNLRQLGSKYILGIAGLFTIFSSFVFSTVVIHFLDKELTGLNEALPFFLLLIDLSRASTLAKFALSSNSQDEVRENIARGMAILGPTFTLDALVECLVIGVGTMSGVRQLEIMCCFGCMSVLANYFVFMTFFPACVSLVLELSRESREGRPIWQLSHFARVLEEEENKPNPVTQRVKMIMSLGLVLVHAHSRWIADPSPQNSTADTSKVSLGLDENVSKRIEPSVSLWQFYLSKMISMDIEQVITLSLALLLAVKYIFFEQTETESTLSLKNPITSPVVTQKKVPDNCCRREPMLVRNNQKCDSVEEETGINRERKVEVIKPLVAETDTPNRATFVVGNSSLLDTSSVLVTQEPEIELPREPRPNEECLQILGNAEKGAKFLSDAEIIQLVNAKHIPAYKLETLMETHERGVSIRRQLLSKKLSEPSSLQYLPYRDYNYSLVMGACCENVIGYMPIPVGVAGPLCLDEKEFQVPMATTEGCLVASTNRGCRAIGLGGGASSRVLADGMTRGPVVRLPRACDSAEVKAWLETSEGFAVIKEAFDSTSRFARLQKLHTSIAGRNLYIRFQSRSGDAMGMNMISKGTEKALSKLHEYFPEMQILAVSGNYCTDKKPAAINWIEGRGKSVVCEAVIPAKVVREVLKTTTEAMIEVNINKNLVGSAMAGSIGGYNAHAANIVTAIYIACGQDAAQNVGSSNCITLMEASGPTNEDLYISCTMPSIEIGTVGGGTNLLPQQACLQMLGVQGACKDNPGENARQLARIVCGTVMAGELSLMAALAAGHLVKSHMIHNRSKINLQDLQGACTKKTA
Assay: Inhibition of HMG-CoA reductase by spectrophotometry
Conditions: read-out: IC50
Non-standard residues stand in square brackets, D forms with d. Residues, ends and D or L forms follow the SMILES beside them. Phe(4-F) = N[C@@H](Cc1ccc(F)cc1)C(=O)O
Outcome Measure: log10(IC50) (log10 of the value in µM)

1. NCC(=O)N[C@@H](Cc1ccc(F)cc1)C(=O)N1CCC[C@H]1C(=O)N[C@@H](CCC(=O)O)C(=O)NCC(=O)NCC(=O)O (H-G[Phe(4-F)]PEGG-OH) | -0.12
2. CC[C@H](C)[C@H](N)C(=O)N[C@H](C(=O)N[C@@H](C)C(=O)N[C@@H](CCC(=O)O)C(=O)O)C(C)C (H-IVAE-OH) | 1.72
3. CC[C@H](C)[C@H](N)C(=O)N[C@@H](C)C(=O)N[C@H](C(=O)N[C@@H](CCC(=O)O)C(=O)O)C(C)C (H-IAVE-OH) | 1.88
4. CC(C)[C@H](NC(=O)[C@H](Cc1ccc(F)cc1)NC(=O)CNC(=O)[C@@H](N)Cc1ccccc1)C(=O)N[C@@H](C)C(=O)N[C@@H](CCC(=O)O)C(=O)O (H-FG[Phe(4-F)]VAE-OH) | 0.93
5. CC(C)[C@H](NC(=O)[C@@H](N)Cc1ccc(F)cc1)C(=O)N[C@@H](C)C(=O)N[C@@H](CCC(=O)O)C(=O)O (H-[Phe(4-F)]VAE-OH) | 0.58
6. CC(C)[C@H](NC(=O)[C@H](C)NC(=O)[C@@H](N)Cc1ccc(O)cc1)C(=O)N[C@@H](CCC(=O)O)C(=O)O (H-YAVE-OH) | 1.65
7. CC(C)C[C@H](N)C(=O)N1CCC[C@H]1C(=O)N[C@@H](Cc1ccc(O)cc1)C(=O)N1CCC[C@H]1C(=O)O (H-LPYP-OH) | 2.69

Source of measurements: ChEMBL document CHEMBL1165979
